Target: human mtHsp70 P509S PD variant (human, UniProt P38646 47-679, P509S)
Sequence (P38646 47-679 P509S): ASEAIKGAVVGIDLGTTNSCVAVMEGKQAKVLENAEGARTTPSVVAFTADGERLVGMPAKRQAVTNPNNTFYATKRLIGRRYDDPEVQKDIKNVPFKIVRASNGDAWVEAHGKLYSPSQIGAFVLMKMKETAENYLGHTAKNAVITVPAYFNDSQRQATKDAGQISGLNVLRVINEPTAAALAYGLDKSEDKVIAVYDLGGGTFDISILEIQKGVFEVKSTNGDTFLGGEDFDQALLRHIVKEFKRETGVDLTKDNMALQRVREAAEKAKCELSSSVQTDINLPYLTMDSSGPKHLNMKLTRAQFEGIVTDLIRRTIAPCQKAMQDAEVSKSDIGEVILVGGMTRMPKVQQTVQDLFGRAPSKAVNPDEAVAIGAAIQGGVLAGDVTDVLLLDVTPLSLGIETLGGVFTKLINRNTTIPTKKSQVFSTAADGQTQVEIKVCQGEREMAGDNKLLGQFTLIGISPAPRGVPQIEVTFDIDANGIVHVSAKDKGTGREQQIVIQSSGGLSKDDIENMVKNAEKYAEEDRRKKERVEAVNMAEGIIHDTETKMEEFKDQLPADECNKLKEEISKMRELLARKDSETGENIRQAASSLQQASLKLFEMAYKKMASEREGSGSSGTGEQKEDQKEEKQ
Test: fluorescence polarisation
Where no end group is shown, it is not given here.
Property Measured: Kd
Record the result as number plus unit.

// query Specify measured Kd for ALLLSAPRR (also: fluorescein label, position not given here) [fluorescein-labeled P5 peptide (F-P5)] .
// result 15.7 µM

Provenance of the data: paper PMC3392108
